All values here come from ChEMBL document CHEMBL1134662.

- assayed_target: Melanocortin receptor 3 (Homo sapiens)
- Sequence (P41968 whole entry): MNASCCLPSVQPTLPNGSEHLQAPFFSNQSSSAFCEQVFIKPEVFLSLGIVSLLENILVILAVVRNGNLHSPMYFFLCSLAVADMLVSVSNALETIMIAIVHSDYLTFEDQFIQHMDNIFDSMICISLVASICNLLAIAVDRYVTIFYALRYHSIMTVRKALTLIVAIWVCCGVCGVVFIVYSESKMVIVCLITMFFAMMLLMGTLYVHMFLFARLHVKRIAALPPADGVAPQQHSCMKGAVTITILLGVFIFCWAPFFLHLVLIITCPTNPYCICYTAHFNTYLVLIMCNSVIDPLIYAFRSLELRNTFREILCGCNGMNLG
measured_metric: Ki (nM)
Give just the numeric value; nM need not be written.

Recorded Ki, per entry:
| molecule | assayed_target | uom | Ki |
| --- | --- | --- | --- |
| N=C(N)NCCC[C@@H]1NC(=O)[C@@H](Cc2ccc3ccccc3c2)NC(=O)CCC(=O)NCCCC[C@@H](C(N)=O)NC(=O)[C@H](Cc2c[nH]c3ccccc23)NC1=O | Melanocortin receptor 3 (Homo sapiens) | nM | 150 |
| CC(=O)N[C@H]1CC(=O)NCCCC[C@@H](C(N)=O)NC(=O)[C@H](Cc2c[nH]c3ccccc23)NC(=O)[C@H](CCCNC(=N)N)NC(=O)[C@@H](Cc2ccc3ccccc3c2)NC1=O | Melanocortin receptor 3 (Homo sapiens) | nM | 190 |
| CC(=O)N[C@H]1CSSC[C@@H](C(N)=O)NC(=O)CNC(=O)[C@H](Cc2c[nH]c3ccccc23)NC(=O)[C@H](CCCN=C(N)N)NC(=O)[C@@H](Cc2ccc3ccccc3c2)NC(=O)[C@H](Cc2c[nH]cn2)NC(=O)[C@H](CCC(=O)O)NC1=O | Melanocortin receptor 3 (Homo sapiens) | nM | 2.6 |

Exercise: Give Ki (Melanocortin receptor 3 (Homo sapiens)) of the following molecule: N=C(N)NCCC[C@@H]1NC(=O)[C@@H](Cc2ccc3ccccc3c2)NC(=O)CCC(=O)NCCC[C@@H](C(N)=O)NC(=O)[C@H](Cc2c[nH]c3ccccc23)NC1=O
Solution: 56

Exercise: # value lookup — system Melanocortin receptor 3 (Homo sapiens), readout Ki, item CCC1CC(=O)N[C@H](Cc2ccc3ccccc3c2)C(=O)N[C@@H](CCCN=C(N)N)C(=O)N[C@@H](Cc2c[nH]c3ccccc23)C(=O)N[C@H](C(N)=O)CCCCNC1=O (stereo in doubt; 18)
Solution: 240
